The reported measurements were obtained from ChEMBL document CHEMBL1142488.

- Assay Explanation: Cytotoxicity against human KB3-1 cells after MTT assay
- Type: functional, cell-based
- Conditions Used: KB 3-1
Each item that follows carries a reported IC50.
Quantity Name: IC50 (nM)

[
  {
    "Compound": "CC[C@@]1(O)C(=O)OCc2c1cc1n(c2=O)Cc2cc3c(CN(C)C)c(O)ccc3nc2-1 [TOPOTECAN]",
    "Value Measured": 40
  },
  {
    "Compound": "C#CCN(CC)CCn1c(=O)c2cc(OC)c(OC)cc2c2cnc3cc4c(cc3c21)OCO4",
    "Value Measured": 70
  },
  {
    "Compound": "COc1cc2c(=O)n(CCN(CC(F)(F)F)C(C)C)c3c4cc5c(cc4ncc3c2cc1OC)OCO5",
    "Value Measured": 1000
  },
  {
    "Compound": "COc1cc2c(=O)n(CCN(C)CC(F)(F)F)c3c4cc5c(cc4ncc3c2cc1OC)OCO5",
    "Value Measured": 410
  },
  {
    "Compound": "COc1cc2c(=O)n(CCN(C)CC#N)c3c4cc5c(cc4ncc3c2cc1OC)OCO5",
    "Value Measured": 5
  },
  {
    "Compound": "C#CCN(CCn1c(=O)c2cc(OC)c(OC)cc2c2cnc3cc4c(cc3c21)OCO4)C(C)C",
    "Value Measured": 100
  },
  {
    "Compound": "CCOc1cc2c(=O)n(CCN(C)C)c3c4cc5c(cc4ncc3c2cc1OCC)OCO5",
    "Value Measured": 70
  },
  {
    "Compound": "COc1cc2c(=O)n(CCN(C)C)c3c4cc5c(cc4ncc3c2cc1OC)OCO5",
    "Value Measured": 5
  },
  {
    "Compound": "COc1cc2c(=O)n(CCN(C)CC(N)=O)c3c4cc5c(cc4ncc3c2cc1OC)OCO5",
    "Value Measured": 10
  }
]
